test.details: photoluminescence quantum yield (fraction); solvent given as SMILES
particulars: in Cc1ccccc1
So basically: photoluminescence quantum yield at 0.3 or higher? That is class 1. Lower than 0.3? That is class 0.

COc1ccccc1-c1nc2c3ccccc3c3ccccc3c2n1-c1ccc(C)cc1 = class 0

Does photoluminescence quantum yield meet or surpass 0.3 for `COc1cc2c(cc1/C=C(\C#N)c1nc3ccccc3s1)c1ccccc1n2C` ? class 0

Check the entry `CCCCCCCCCCCCN1C(=O)c2cccc3c(N(Cc4ccccn4)Cc4ccccn4)c4ccccc4c(c23)C1=O` : does photoluminescence quantum yield equal or exceed 0.3? class 0

Is photoluminescence quantum yield for `N#Cc1c(-n2c3ccccc3c3ccccc32)c(-n2c3ccccc3c3ccccc32)c(-n2c3ccccc3c3ccccc32)c(-n2c3ccc(-c4ccccc4)cc3c3cc(-c4ccccc4)ccc32)c1-n1c2ccccc2c2ccccc21` at or above 0.3? class 1

Does photoluminescence quantum yield meet or surpass 0.3 for `COc1ccc(C2=Nc3sc(-c4ccccc4)n[n+]3[B-](F)(F)O2)cc1` ? class 0

Is it the case that `C(#Cc1nc2ccccc2s1)c1ccc(N(c2ccccc2)c2ccccc2)cc1` has photoluminescence quantum yield reaching or exceeding 0.3? class 1

photoluminescence quantum yield >= 0.3 for `c1ccc2nc(-n3c4ccccc4c4ccccc43)c(-n3c4ccccc4c4ccccc43)nc2c1` ? class 0

====

Consider the following compounds; for each one, report its photoluminescence quantum yield.
test.details: photoluminescence quantum yield (fraction); solvent given as SMILES
particulars: in CCCCCC
Numbers only.

// worked examples, photoluminescence quantum yield included
CC1=N/C(=C\c2ccc(C#N)c(N(C)C)c2)C(=O)N1C = 0.41
COc1cc(OC)cc(C2=[O+][B-](F)(F)OC(c3cccs3)=C2)c1 = 0.16
CC1=[N+]2C(=C(c3ccc(N4CCOCC4)cc3)c3ccc(C)n3[B-]2(F)F)C=C1 = 0.388
CC(O)CC1=N/C(=C\c2cccc(N(C)C)c2)C(=O)N1C (stereo not given) = 0.37

GET /values?readout=photoluminescence quantum yield&item= `CCC1=C(C)C2=C(c3ccc(-c4c5ccccc5c(-c5ccccc5)c5ccccc45)cc3)c3c(C)c(CC)c(C)n3[B-](F)(F)[N+]2=C1C` 0.756

====

test.details: photoluminescence quantum yield (fraction); solvent given as SMILES
particulars: in CC#N
value.type: photoluminescence quantum yield
Answers are plain numbers.

COc1ccc2cc(/C=C/c3ccccc3)c(=O)oc2c1 = 0.71

Dear colleague, could you send me photoluminescence quantum yield for each of the items below? Thanks.
1. CCOC(=O)CN1C(=O)C2=C(c3ccc(C#N)cc3)N(CC(=O)OCC)C(=O)C2=C1c1ccccc1
2. COc1ccc(C#Cc2ccc(C#Cc3ccc(C#Cc4ccccc4C#N)cc3C#N)cc2C#N)cc1

1: 0.75; 2: 0.973

Hi there! I need photoluminescence quantum yield for each item below, if you can.
1. Oc1ccc2ccccc2c1C1Nc2cccc3cccc(c23)N1
2. COc1ccc2c3c(c4ccc(OC)cc4c2c1)=[N+]1C(=C(c2c(C)cc(C)cc2C)c2cc4c5ccc(OC)cc5c5cc(OC)ccc5c4n2[B-]1(F)F)C=3
3. CC1(C)[C@@H]2[C@@H]1[C@]1(c3ccccc3)N=NC2(c2ccccc2)C2C3C=CC(C3)C21 (stereo not given in full)
4. COC(=O)C12N=N[C@](C(=O)OC)(C3C4CCC(C4)C31)[C@@]1(C)C[C@@H]21 (stereo not given in full)
5. CC(C)[Si]1(C(C)C)c2cc(C=O)ccc2-c2ccc(N(c3ccccc3)c3ccccc3)cc21

1. 0.03
2. 0.33
3. 0.08
4. 0.043
5. 0.48

Batch request: photoluminescence quantum yield per item, same order as input.
1. N#Cc1nn(-c2cc(F)cc(F)c2)nc1N1CCCC1
2. COc1cc2cc(C#Cc3ccc(/C=C(\C#N)C(=O)O)cc3)c(=O)oc2cc1OC
3. CN(C)c1ccc(C2=Nc3scc(-c4ccccc4)[n+]3[B-](F)(F)O2)cc1
4. Cn1nc(-c2ccccc2)c2nc3cc(Cl)ccc3nc21
5. Cc1ccc(-c2cc(-c3ccc(N(C)C)cc3)c3c(N)nc(N4CCCC4)c(C#N)c3n2)cc1
6. N#CC(/N=C/c1ccccc1O)=C(C#N)/N=C/c1ccccc1O

1. 0.837
2. 0.05
3. 0.08
4. 0.08
5. 0.095
6. 0.017

Using the record for `CN(C)CCN(Cc1c2ccccc2cc2ccccc12)c1ccc([N+](=O)[O-])cc1[N+](=O)[O-]` , report its photoluminescence quantum yield. 0.0185
